# Measured on: T1, HLA-DR molecule DRB1*0405 (human)
# T1 chain 1: not shown
# T1 chain 2: not shown
# Assay explanation: radioligand inhibition, purified HLA-DR
# Experimental conditions: remark: other sources report otherwise
Assignment: determine reported IC50 for the given binders.
Give bare numbers, in nM.

Binder	IC50 (nM)
HNQVRQVPLQRLRIV [Peptide 9019.0034 (Her2/neu.88)]	1300
ERGPLEHLYSLHIPN [Peptide 9019.0190 (IGFBP2.249)]	110

We now examine a further binder.
Sure, the documented IC50 for LKSGMKELAVFREKV [Peptide 9019.0185 (IGFBP2.184)] is 34
